Tested on: 309ATM KO cells
test summary: Survival assay (MTS), ATM KO mouse kidney cells
Format: cell-based
test conditions: 309ATM KO cells, 72 hrs, MTS; read-out: cell survival IC50 KO
endpoint: IC50 (µM)
Respond with the bare value in µM.

The reported IC50 of the compound OC[C@H]1O[C@@H](n2cnc3cc(Cl)c(Cl)cc32)[C@H](O)[C@@H]1O [DRB, reference compound] was 56

====

System: hFANCD2-Ub in HeLa cells
test summary: hFANCD2 ubiquitylation assay in hydroxyurea-treated HeLa cells (immunoblot, densitometry)
Format: cell-based, human
test conditions: Homo sapiens; HeLa cells co-treated with hydroxyurea; read-out: hFANCD2-Ub inhibition IC50
Measured IC50, listed per entry for reference.
// units = nM; emit number, no label

Here are 2 compounds together with their reported answers.
COc1cc(/C=C/C(=O)CC(=O)/C=C/c2ccc(O)c(OC)c2)ccc1O :: 15000
O=C1/C(=C/c2ccccc2F)CNC/C1=C\c1ccccc1F :: 390

Shifting focus to the compound that follows.
O=C1/C(=C/c2ccc([N+](=O)[O-])cc2)CS(=O)(=O)C/C1=C\c1ccc([N+](=O)[O-])cc1 yielded IC50 of 120
